binders and their reported Phage binding ELISA signal, Anti-PSMA Fab
subject of test: T1, PSMA Fab (biotinylated (site not stated))
T1 construct: Biotinylated PSMA Fab captured on neutravidin coated plates in the phage ELISA; also called Anti-PSMA Fab; 006 PSMA Fab
test: phage ELISA; biotinylated PSMA Fab on neutravidin plate, clonal phage supernatant, anti-M13 HRP detection;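 note: wells preincubated with PSMA antigen in blocking buffer or with blocking buffer only before clonal phage were added for a short incubation, then bound phage detected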

Take a look at these entries with their results.
ELRLCVPHWMCDGF [Phage-3847] ... 1.21
VVHLCTPNWMCNGF [Phage-3853] ... 1.19
SGLSCVPFWMCTGF [Phage-3845] ... 1.21
WQAWCEPPWMCLGF [Phage-3851] ... 1.2
LYEMCKPLWMCAGF [Phage-3842] ... 1.22

Proceed to the following item.
Query: Phage binding ELISA signal, Anti-PSMA Fab; subject: VPRLCMPPWMCVGF [Phage-3848]
Result: 1.21
